Tested on: HepG2
Experiment: Cytotoxicity against human HepG2 cells assessed as reduction in cell viability after overnight incubation by MTT assay
Type: cell-based
pIC50: −log10 of the molar value.
// pIC50 lookup, one value per entry

Reference set, count: 10
compound_string=O=C(NCCc1ccccc1)Oc1ccccc1C(=O)Nc1ccccc1 quantity_kind=pIC50 data_value="< 3.90"
compound_string=O=C(NC1CCCCC1)Oc1ccc(Cl)cc1 quantity_kind=pIC50 data_value="< 3.90"
compound_string=O=C(NC12CC3CC(CC(C3)C1)C2)Oc1ccc(Cl)cc1C(=O)Nc1ccc(F)cc1 quantity_kind=pIC50 data_value="< 3.90"
compound_string=O=C(NC1CCCCC1)Oc1ccc(Cl)cc1C(=O)Nc1ccc(C(F)(F)F)cc1 quantity_kind=pIC50 data_value="< 3.90"
compound_string=O=C(Nc1ccccc1)Oc1ccc(Cl)cc1C(=O)Nc1ccc(Br)cc1 quantity_kind=pIC50 data_value="< 4.30"
compound_string=O=C(NCc1ccccc1)Oc1ccc(Cl)cc1C(=O)Nc1ccc(Br)cc1 quantity_kind=pIC50 data_value="< 4.30"
compound_string=NNC(=O)c1ccncc1 quantity_kind=pIC50 data_value="< 3.60"
compound_string=O=C(NCCc1ccccc1)Oc1ccc(Cl)cc1C(=O)Nc1ccc(Cl)cc1 quantity_kind=pIC50 data_value=4.82
compound_string=O=C(NCc1ccccc1)Oc1ccc(Cl)cc1C(=O)Nc1ccc(C(F)(F)F)cc1 quantity_kind=pIC50 data_value="< 3.90"
compound_string=O=C(NC1CCCCC1)Oc1ccccc1C(=O)Nc1ccccc1 quantity_kind=pIC50 data_value=4.31

Below: the item to evaluate.
stdin: pIC50 for O=C(NCc1ccccc1)Oc1ccccc1C(=O)Nc1ccccc1 ?
stdout: < 3.90
